These data points were gathered from paper PMC10967822.

protocol summary: Cytotoxicity assay (resazurin)
Assay type: cell-based
conditions used: human, HEK293 cells, mean n = 2
assay readout: IC50 at 20 h

# query: IC50 at 20 h of entry O=C(NCCCNCCCCCCCCCCNCCCNC(=O)c1c[nH]c2c(F)cccc12)c1c[nH]c2c(F)cccc12 [Compound 16e] > 38 µM

# query: IC50 at 20 h of entry Cc1cccc2c(C(=O)NCCCNCCCCCCCCCCNCCCNC(=O)c3c[nH]c4c(C)cccc34)c[nH]c12 [Compound 18e] > 39 µM

# query: IC50 at 20 h of entry O=C(NCCCNCCCCCCCNCCCNC(=O)c1c[nH]c2ccc(Br)cc12)c1c[nH]c2ccc(Br)cc12 [Compound 13c] > 35 µM

# query: IC50 at 20 h of entry O=C(NCCCNCCCCCCNCCCNC(=O)c1c[nH]c2c(F)cccc12)c1c[nH]c2c(F)cccc12 [Compound 16b] > 41 µM

# query: IC50 at 20 h of entry COc1ccc2[nH]cc(C(=O)NCCCNCCCCCCCNCCCNC(=O)c3c[nH]c4ccc(OC)cc34)c2c1.O=C(O)C(F)(F)F.O=C(O)C(F)(F)F [Compound 14c] > 39 µM

# query: IC50 at 20 h of entry COc1cccc2c(C(=O)NCCCNCCCCCCCCCCCCNCCCNC(=O)c3c[nH]c4c(OC)cccc34)c[nH]c12.O=C(O)C(F)(F)F.O=C(O)C(F)(F)F [Compound 17f] > 36 µM

# query: IC50 at 20 h of entry Cc1ccc2[nH]cc(C(=O)NCCCNCCCCCCNCCCNC(=O)c3c[nH]c4ccc(C)cc34)c2c1 [Compound 15b] > 41 µM

# query: IC50 at 20 h of entry Cc1cccc2c(C(=O)NCCCNCCCCCCNCCCNC(=O)c3c[nH]c4c(C)cccc34)c[nH]c12 [Compound 18b] > 41 µM

# query: IC50 at 20 h of entry Cc1ccc2[nH]cc(C(=O)NCCCNCCCCCCCCCCCCNCCCNC(=O)c3c[nH]c4ccc(C)cc34)c2c1.O=C(O)C(F)(F)F.O=C(O)C(F)(F)F [Compound 15f] 0.55 µM

# query: IC50 at 20 h of entry COc1cccc2c(C(=O)NCCCNCCCCCCNCCCNC(=O)c3c[nH]c4c(OC)cccc34)c[nH]c12 [Compound 17b] > 40 µM

# query: IC50 at 20 h of entry O=C(NCCCNCCCCCCCCCCCCNCCCNC(=O)c1c[nH]c2ccc(Br)cc12)c1c[nH]c2ccc(Br)cc12.O=C(O)C(F)(F)F.O=C(O)C(F)(F)F [Compound 13f] ≤ 0.25 µM

# query: IC50 at 20 h of entry Cc1cccc2c(C(=O)NCCCNCCCCCCCCNCCCNC(=O)c3c[nH]c4c(C)cccc34)c[nH]c12 [Compound 18d] > 40 µM

# query: IC50 at 20 h of entry O=C(NCCCNCCCCCCCCNCCCNC(=O)c1c[nH]c2c(F)cccc12)c1c[nH]c2c(F)cccc12 [Compound 16d] > 40 µM

# query: IC50 at 20 h of entry O=C(NCCCNCCCCCCCCCCNCCCNC(=O)c1c[nH]c2ccc(Br)cc12)c1c[nH]c2ccc(Br)cc12 [Compound 13e] > 33 µM

# query: IC50 at 20 h of entry O=C(NCCCNCCCCCCCCCCCCNCCCNC(=O)c1c[nH]c2c(F)cccc12)c1c[nH]c2c(F)cccc12.O=C(O)C(F)(F)F.O=C(O)C(F)(F)F [Compound 16f] > 37 µM

# query: IC50 at 20 h of entry Cc1ccc2[nH]cc(C(=O)NCCCNCCCCCCCCCCNCCCNC(=O)c3c[nH]c4ccc(C)cc34)c2c1 [Compound 15e] > 39 µM
